Target: erythrocytes infected with P. falciparum field isolate 11014
Test: flow cytometry, staining of IEs
readout-label: % parasite recognition
State the result as a value with its unit after it.

Check out these entries, answers already filled in.
| binder | readout-label | value-observed |
| --- | --- | --- |
| MGC7 (antibody) VH: EVQLVESGGDLVQPGGSLRLSCAASGFTFRNYWMSWVRQTPGKGLEWVANIRQDGSEKYYVDSVKGRFTISRDNAKNLLYLQMNSLRAEDTAVYYCVRDKFCSDENHMHVADDLPRPSISPEPGTVIPLGSHVTFVCRGPVGVQTFRLEKDRRSTYNDTEDVSQPSPSESEARFRIDSVTEGNAGLYRCVYYKPPKWSDQSDFLELLVKGEDVTWALFPHCGADGEDSDYYMDVWGKGTTVTVSS VL: DIQMTQSPSSVSASVGDRVTITCRASQGLSTWLAWYQQKPGKAPKILIYAASSLQSGVPSRFSGSGSGTDFTLTISSLQPEDFATYYCQQANSFPLTFGGGTKVEIK | % parasite recognition | 2.9% |
| MGC34 (antibody) VH: EVQLVESGGGLVQPGGSLRLSCEASGFTFSSYWMSWVRQAPGKGLEWVANINQDGSQKDYVDSVKGRFTISRDTAKNSLYLQMNSLRAEDTAVYYCARERLCTDDSHMHGEEDLPRPSISAEPGTVIPLGSHVTFVCRGPVGIHTFRLERESRSLYTETEDVTQVSPSESEARFRIESVTEGNAGLYRCVYYKPPKWSEQSDYLELLVKGEDVTRALFTHCGGDGKESDYHMDVWGKGTTVTVSS VL: QTVVTQEPSLTVSPGGTVTLTCASSTGAVTSGYYPSWFHQKPGQPVRALIYSTSKTHSWTPARFSGSLLGGKAALTLSNVQPEDEADYYCLLYYGGPQPWVFGGGTKLTVQ | % parasite recognition | 11.4% |
| MGC37 (antibody) VH: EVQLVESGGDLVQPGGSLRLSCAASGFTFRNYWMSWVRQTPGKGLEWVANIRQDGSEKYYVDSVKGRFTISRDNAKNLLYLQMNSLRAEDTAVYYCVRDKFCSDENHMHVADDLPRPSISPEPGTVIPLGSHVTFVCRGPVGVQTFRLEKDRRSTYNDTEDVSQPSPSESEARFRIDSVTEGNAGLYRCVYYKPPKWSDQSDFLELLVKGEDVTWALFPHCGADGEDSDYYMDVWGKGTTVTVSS VL: DIQLTQSPSTLSASVGDRVTISCRASQRLSRSLAWYQQRPRKAPNLLIYKASPLEIGGPSRFTGSGSGTEFTLTISSLQPDDSATYYCQQYSNYSYSFGQGTKLEIR | % parasite recognition | 5.8% |

In plain terms, MGC1 (antibody) VH: EVQLVESGGGLVQPGGSLRLSCVASGFNFRKSWMGWVRQAPGKGLEWVANIREDGSESFYADSVKGRFTVSRDNAKKSLYLHINSLRAEDTAVYYCARDRFCNDDEIHRHGQEDLPRPSISAAEGTVIPLGSHVTFVCRGPVGVQTFRLEKDSRSIYNDTENVSQPSPSESEARFRIDSVSEGNAGLYRCVYYKAPKWSAQSDYLELLVKGQEVTWALFTSCGGDGEEPDYDMDVRGKGTTVTVSS VL: DIVMTQSPDSLAVSLGERATINCKSSQSVLYRSKNKNYLAWFQQKPGQPPKVLIYSTSTRASGVPDRFTGSGSGTDFTLTISSLQAEDVAVYYCLQYYITPYTFGQGTKLEIK has a documented % parasite recognition of 3.4%
